Every entry's value here was drawn from paper PMC5540273.

system: CDK2; details: concentration: 1 μM, replicates: in singlicate; n = 1;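 note: KINOMEscan kinase panel screen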
quantity name: %Inh (%)
Answer with a number only, understood to be in %.

// known answers, use as guide
{"columns": ["molecule", "unit abbrev", "value"],
 "data": [
  ["CN(c1ccc(NC(=O)N2CCN(CCCN3CCOCC3)CC2)cc1)c1ccnc(Nc2ccc(CS(C)(=O)=O)cc2)n1.Cl [GW830899]", "%", 0],
  ["O=C(Nc1n[nH]c2nc(-c3ccccc3O)ccc12)C1CC1 [SB-711880]", "%", 37],
  ["COC(=O)Nc1nc2ccc(Oc3ccc(NC(=O)Nc4cc(C(F)(F)F)ccc4F)cc3)cc2[nH]1.Cl [GW654607]", "%", 30]
]}

Suppose we examine the molecule Nc1ncc(-c2ccc3nccc(-c4ccncc4)c3c2)cc1S(=O)(=O)N1CCCCC1 [GSK1693850] ; what %Inh value has been reported? 0

Suppose we examine the molecule CN(c1ccc(F)c(NC(=O)c2cccc(OC(C)(C)C#N)c2Cl)c1)c1ccc2nc(NC(=O)C3CC3)sc2n1 ; what %Inh value has been reported? 0

Suppose we examine the molecule Cc1ccc(NC(=O)c2cccc(N3CCCCC3)c2)cc1-c1ccc(C(=O)NCC2CC2)cc1 [GSK1917008] ; what %Inh value has been reported? 2

Suppose we examine the molecule Cc1ccc(O)cc1Nc1ccnc2ccc(C(C)(C)C)cc12 [GW856805] ; what %Inh value has been reported? 7

Suppose we examine the molecule Cl.Cl.NC(CNC(=O)c1cc(Br)c(-c2ccnc3[nH]ccc23)s1)c1ccccc1 (stereo not shown) [GSK1322949] ; what %Inh value has been reported? 0

Suppose we examine the molecule Fc1cc(Cl)ccc1Nc1ccnc2cc(-c3ccc(CN4CCOCC4)o3)ccc12 [GW560109] ; what %Inh value has been reported? 0

Suppose we examine the molecule Cl.Cl.NCC(NC(=O)c1cc(-c2cccnc2)c(-c2ccnc3[nH]ccc23)s1)c1ccccc1 (stereo not shown) [GSK1323434] ; what %Inh value has been reported? 3

Suppose we examine the molecule COc1cc(Nc2nccc(N3CCC(NS(=O)(=O)c4ccc(NC(C)=O)cc4)CC3)n2)cc(OC)c1OC [GSK1379825] ; what %Inh value has been reported? 0

Suppose we examine the molecule Cc1ccc(C)c(NC(=O)Nc2ccc(C)c(-c3ccc(C(=O)Nc4ccncc4)cc3)c2)c1 [GSK1398473] ; what %Inh value has been reported? 0

Suppose we examine the molecule CCNc1nccc(-c2c(-c3ccc(F)cc3)ncn2C2CCN(C)CC2)n1 ; what %Inh value has been reported? 0

Suppose we examine the molecule Nc1ncnc2scc(-c3ccc(NC(=O)Cc4cc(F)ccc4F)cc3)c12.O=C(O)C(F)(F)F [SB-731254-M] ; what %Inh value has been reported? 0

Suppose we examine the molecule CN1CCN(Cc2ccc(NC(=O)Nc3ccc(N(C)c4ccnc(Nc5ccc(CS(C)(=O)=O)cc5)n4)cc3)cc2)CC1.Cl [GW827654] ; what %Inh value has been reported? 16

Suppose we examine the molecule COc1cccc(CC(=O)N2CCc3cc(-c4cn(C)c5ncnc(N)c45)ccc32)c1 [GSK2608899] ; what %Inh value has been reported? 18

---

system: PIK3C2B; details: concentration: 1 μM, replicates: in singlicate; n = 1
quantity name: %Inh (%)
Answer with a number only, understood to be in %.

{"columns": ["chem smiles", "%Inh / %"],
 "data": [
  ["COC(=O)Nc1nc2cc(Oc3ccc(NC(=O)Nc4cccc(SC)c4)cc3)ccc2[nH]1.Cl", 0],
  ["COc1cccc(-c2nc(-c3ccccc3)[nH]c2-c2ccncc2)c1", 0]
]}

Entry CN1CCN(Cc2ccc(NC(=O)Nc3ccc(N(C)c4ccnc(Nc5ccc(CS(C)(=O)=O)cc5)n4)cc3)cc2)CC1.Cl , system PIK3C2B: what %Inh was measured? 0
